From: paper PMC11947346

- assayDetails: in vivo
- measurementParameters: Balb/c nu/nu, mouse, tumour / liver, 48 pmol, total radioactivity
readoutType: tissue to tissue ratio at 1 h

compound="CC1=NNC(c2ccc(CNC(=O)c3ccc(F)nc3)cc2)=C2CCC[C@H](OC(=O)NCCOCCOCCC(=O)N[C@H](Cc3ccccc3)C(=O)N[C@@H](CCC(N)=O)C(=O)N[C@@H](Cc3c[nH]c4ccccc34)C(=O)N[C@@H](C)C(=O)N[C@H](C(=O)NCC(=O)N[C@@H](Cc3c[nH]cn3)C(=O)N[C@@H](CC(C)C)[C@@H](O)CC(=O)N[C@@H](CC(C)C)C(N)=O)C(C)C)CCC12 (stereo partly shown) [8a]" readouttype="tissue to tissue ratio at 1 h" recordednumber=0.2
